Experiment: protein stability index of a GFP-peptide fusion (GPS, HEK-293T) (PSI 1-6); higher = more stable;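 further: 24-mer peptide tiles fused after GFP, lentivirally expressed, FACS-sorted into six equal bins by GFP/DsRed ratio, decoded by Illumina sequencing, PSI is the read-weighted mean bin number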
Details: treatment: DMSO; c terminus: a fixed tail appended
Class condition met: protein stability index at least 3. Class condition not met: protein stability index below 3.

Could you please find out whether FRVLCTAPAKYTVFDAEGYVKPQS [MOSPD3] has protein stability index that meets 3 or exceeds it?
condition not met

Hello, I need to know if VIKDKDDSVDAQNICHVWHMNVEA [RNF180] has measured protein stability index not below 3. Thanks!
condition met

Quick check: does GSARSHASSRASENQSPSSSNYFS [ZBTB22] have protein stability index greater than or equal to 3?
condition met

Kindly determine if protein stability index recorded for PSVRKKAGSFSRRLIKRFSFKSKP [C2CD2L] is above or exactly 3.
condition met

Decide: protein stability index of LDSSHSPSSLSSSEGSSSSSSSSS [NFE2L1] >= 3?
condition met

Determine whether measured protein stability index meets or exceeds 3 for AVTLRCGHNFCRGCVSRCWEVQVS [TRIM35]
condition not met

Quick check: does LESEDWEEDNWDPELMEHTEAESE [TEX19] have protein stability index greater than or equal to 3?
condition met

# check: protein stability index of CRKCIASSGCFMEYLENQVIKDKD [RNF180] is greater than or equal to 3
condition not met

Please tell me: is the sequence YSLVTHIPAGARDIQIVERKKSAD [ADAMTSL2] at or over 3 in terms of protein stability index?
condition met

Check the entry GRGLLRWDSFSAWLHCVCVVGFDL [DENND6A] : does protein stability index equal or exceed 3?
condition not met

Does the reported protein stability index for TACKPVIRVPSVPPVPCVPSVPCT [KRT36] fall at or above the 3 mark?
condition met

Check this sequence for protein stability index at or above 3: SSSTPLEDEEPQEPNRLETGEAGE [RTN2]
condition met

Decide: protein stability index of RTPLIKLSPKKTWEGFIGGFFSTV [CDS1] >= 3?
condition not met

Is protein stability index for LVELSAENEKLHQRVEQLTRDLAG [CEBPD] at or above 3?
condition met

# check: protein stability index of MSHHQEELVPKQPQKRKPQEQLLE [SLC2A12] is greater than or equal to 3
condition met

Textbook exercise: given the entry VNRRISIVGFGLYGSIHGPTDYQV [BTBD1] , state whether its protein stability index is greater than or equal to 3.
condition not met

* * *

Test: protein stability index of a GFP-peptide fusion (GPS, HEK-293T) (PSI 1-6); higher = more stable
Conditions: treatment: DMSO; c terminus: a fixed tail appended
ENDPOINT_LABEL: protein stability index
Reply with just the number.

Which protein stability index value is on record for QPPQSQAQVPPAAPHHHHHHSHSG [PLK2] ?
4.71

So what does the record say about protein stability index for THRLKDGSTMLIEAAKGGHTSVVC [ANKRD17] ?
2.51

Sample EEVDQMFQFASIDVAGNLDYKALS [MYL5] — what was its protein stability index?
4.27

Field request: protein stability index | item: SVMAIERCIGVTKPIFHSTKITSK [PTGFR]
2.71

Entry under review: KAKQEKVSAQYLSEIEMAKAQRDY [FLOT1] . Reported protein stability index?
4.54

protein stability index for NLKTLDSKPGVYTSYKPYLNRDEE [DENND6A] ?
3.6

Looking for the measured protein stability index of MDQLQGLGSDYEQPLEVKNNSNLQ [CDC25A] , can you help?
5.09

# query: protein stability index of entry KRLSRFDIEMSMRGDIFERIVHLQ [NLN]
1.84

Quick check: protein stability index of RSLANGPNAGEQPGQVAGADFESE [EID1] ?
5.22

What does the record list as protein stability index for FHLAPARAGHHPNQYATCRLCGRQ [ZBED2] ?
2.58

Report protein stability index for MTEEVIVIAKWDYTAQQDQELDIK [NCK2] please.
2.92

protein stability index for SLELPKAIQDQLPRLQQLLKTLEE [FANCE] ?
2.66

Entry LTGLFKGDKCHSLVGKPKIFIIQA [CASP6] : reported protein stability index = ?
2.83

Requested field: protein stability index. Item: GHLSKDVDENDSHEGEDQFLSLEA [DLC1]
5.63

Consider the sequence "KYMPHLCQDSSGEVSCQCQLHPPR" and give its measured protein stability index.
2.76

Any idea what its protein stability index is? The sequence is FTGELAESRQTEVVIRDIDERAME [KLHL20]
4.69

Entry ATYIFIFIGETLLSMNWAIVADIL [SPNS1] : reported protein stability index = ?
3.13

I would be grateful if you could share the reported protein stability index for YYTMDPTQHVNNWMKHNVADSQIT [PTPRD] .
2.95

Report protein stability index for FEAEPLPENTNRQLLLQFERLVVL [PI4K2A] please.
2.12

Please look up its protein stability index: DVEFLPVYHPSPEESRDPTLYANN [LPCAT4]
4.88

Using the record for QQIQGLISSIEAQLSELRSEMECQ [KRT13] , report its protein stability index.
3.6

Can you share its protein stability index? I mean this sequence: LFSKWFSESGKLVTKMFQKIQDLI [TRIP13]
2.98

Given PEGLDSDFLAVLSDYPSPDISPPI [SLA] , state its recorded protein stability index.
4.08

Looking for the measured protein stability index of NHSLARHADILAAVETRLSLLNMT [FBXO28] , can you help?
2.53
